measured-parameter: melting point (°C)

Solved entries (count: 2):
Entry under review: "CCc1nn(CCO)c(CC)c1Oc1ccc(C#N)c(Cl)c1" . Reported melting point? 85

Same again, this time with "CCc1nn(CCO)c(CC)c1Oc1cc(C)c(C#N)c(C)c1" 97

a = CNC(=O)Cn1nc(C2CC2)c(Oc2ccc(C#N)cc2)c1C1CC1
b = CCc1nn(CCO)c(CC)c1Oc1ccc(C#N)cc1
// max by melting point over [ a , b ] Answer by stating the label of the chosen item. a
(a: 163 °C, b: 82 °C)

Every entry's value here was drawn from patent US7482375B2.
